tested on: Clostridium sporogenes DSM 1664; assay: growth (OD595) fold change vs plate DMSO controls (fold change (ratio)); higher = more growth; conditions: incubation time: 27 h, anaerobic, 37 °C
Structures can show the parent of a compound that is named as a salt.
growth for assorted molecules

molecule	growth
Cc1cccc(C)c1OCC(C)N (configuration not stated) [Mexiletine hydrochloride] (20 µM)	0.941
Cc1ccc(C(=O)c2ccc(CC(=O)O)n2C)cc1 [Tolmetin sodium salt dihydrate] (20 µM)	1.12
CCN(CC)C(=O)N1CCN(C)CC1 [Diethylcarbamazine citrate] (20 µM)	1.12
CC(C(O)c1ccc(O)cc1)N1CCC(Cc2ccccc2)CC1 (configuration not stated) [Ifenprodil tartrate] (20 µM)	1.02
Nc1ccc(O)c(C(=O)O)c1 [Mesalamine] (20 µM)	0.832
CC(C(=O)O)c1cccc(C(=O)c2ccccc2)c1 (configuration not stated) [Ketoprofen] (20 µM)	0.99
CC(=O)NS(=O)(=O)c1ccc(NC(=O)c2ccccc2C(=O)O)cc1 [Phthalylsulfacetamide] (20 µM)	0.948
NS(=O)(=O)c1cc(Cl)c(Cl)c(S(N)(=O)=O)c1 [Dichlorphenamide] (20 µM)	0.963
Cc1cc2nc3ccc(=[N+](C)C)cc-3sc2cc1N [Tolonium chloride] (20 µM)	0.823
CCN[C@H]1CN(CCCOC)S(=O)(=O)c2sc(S(N)(=O)=O)cc21 [Brinzolamide] (20 µM)	1.17
CC1=C(C(=O)O)N2C(=O)[C@@H](NC(=O)[C@H](N)c3ccc(O)cc3)[C@H]2SC1 [Cefadroxil] (20 µM)	0.898
CN[C@@H]1[C@H](O)[C@H](NC)[C@H]2O[C@@]3(O)C(=O)C[C@@H](C)O[C@H]3O[C@@H]2[C@H]1O [Spectinomycin dihydrochloride] (20 µM)	1.04
CO[C@@]1(NC(=O)C(C(=O)O)c2ccc(O)cc2)C(=O)N2C(C(=O)O)=C(CSc3nnnn3C)CO[C@@H]21 (some centres not stated) [Moxalactam disodium salt] (20 µM)	0
CCC(=O)c1c(O)cc(O)cc1O [Flopropione] (20 µM)	0.955
CCN(CC)CC#CCOC(=O)C(O)(c1ccccc1)C1CCCCC1 (configuration not stated) [Oxybutynin chloride] (20 µM)	1.01
CCC1NC(=O)c2cc(S(N)(=O)=O)c(Cl)cc2N1 (configuration not stated) [Quinethazone] (20 µM)	0.978
N=C(N)NC(=N)NCCc1ccccc1 [Phenformin hydrochloride] (20 µM)	0.958

// provenance: the supplement of paper PMC12494721
